# Test system: Streptococcus pneumoniae
# assay.notes: Antibacterial activity against penicillin-susceptible Streptococcus pneumoniae clinical isolate by broth microdilution method
# Format: functional
I'd appreciate it if you could supply MIC50 values for the items below.

// query I am curious: what MIC50 value has been reported for `CN[C@H](CC(C)C)C(=O)N[C@H]1C(=O)N[C@@H](CC(N)=O)C(=O)N[C@H]2C(=O)N[C@H]3C(=O)N[C@H](C(=O)N[C@H](C(=O)O)c4cc(O)cc(O)c4-c4cc3ccc4O)[C@H](O)c3ccc(c(Cl)c3)Oc3cc2cc(c3O[C@@H]2O[C@H](CO)[C@@H](O)[C@H](O)[C@H]2O[C@H]2C[C@](C)(N)[C@H](O)[C@H](C)O2)Oc2ccc(cc2Cl)[C@H]1O` ?
// result 0.25 µg/mL

// query Recorded MIC50 for `C/C(=C\c1cc(F)c(OC[C@H](F)C2CC2)cc1F)C(=O)N[C@@H]1[C@H](O)[C@@H](O)[C@H]2OCO[C@H]2[C@@H]1O` , please?
// result 0.25 µg/mL

// query Can you look up the measured MIC50 of `CC(=O)NC[C@H]1CN(c2ccc(N3CCOCC3)c(F)c2)C(=O)O1` for me?
// result 1 µg/mL

// query Please look up its MIC50: `CC1(C)S[C@@H]2[C@H](NC(=O)Cc3ccccc3)C(=O)N2[C@H]1C(=O)O`
// result 0.015 µg/mL
